Below, each entry is listed alongside its reported cell binding.
TARGET_OR_SYSTEM: T1, CD70 on cells (CHO-CD70, JVM-3, U266, Raji, THP-1, T cells) (human, UniProt P32970 1-193)
T1 construct: whole, on cells; also called cell-surface CD70
T1 sequence (looked up): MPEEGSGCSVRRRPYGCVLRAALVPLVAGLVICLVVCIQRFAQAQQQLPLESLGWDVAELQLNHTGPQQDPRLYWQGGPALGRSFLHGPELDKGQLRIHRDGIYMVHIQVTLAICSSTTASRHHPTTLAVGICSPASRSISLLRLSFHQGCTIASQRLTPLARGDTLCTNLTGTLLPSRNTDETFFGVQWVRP
MEASUREMENT_NOTES: 1.25 µg/mL scFv on JVM-3 cells
The reply should be a number, written without any unit.

Sample 54-TC7-V-D10 (scFv, His-tagged) scFv: QVQLQQWGAGLLKPSETLSLTCAVYGGSFSGYYWSWIRQPPGKGLEWIGEINHSGSTNYNPSLKSRVTISVDTSKNQFSLKLSSVTAADTAVYYCARGGYRSYWYFDLWGRGTLVTVSSGGSGGSGGSGGSQSALTQPASVSGSPGQSITISCTGTSSDVGGYNSVSWYQHHPGKAPKLMIYDVSDRPSGVSDRFSGSKSGNTASLTISGLQAEDEADYYCSSYAGSNNVVFGGGTKVTVL ; cell binding observed: 2130

Item: 53-TC7-VI-B06 (scFv, His-tagged) scFv: EVQLLESGGGVVQPGRSLRLSCAASGFTFSSYGMHWVRQAPGKGLEWVAVISYDGSNKYYADSVKGRFTISRDNSKNTLYLQMNSLRAEDTAVYYCAKGELELTNWGQGTLVTVSSGGSGGSGGSGGSSYELTQPPSVSVAPGQTARITCGGNNIGSKSVHWYQQKSGQAPVLVVYDDTDRPSGTPERFSGSNSGNTATLTISGTQAMDEADYYCQAWDSSTAVFGTGTKVTVL | cell binding: 1830

Record 60-TC7-VII-C02 (scFv, His-tagged) scFv: QVQLQQWGAGLLKPSETLSLTCAVYGGSFSGYYWSWIRQPPGKGLEWIGEINHSGSTNYNPSLKSRVTISVDTSKNQFSLKLSSVTAADTAVYYCARSPLWFGPPDAFDIWGQGTMVTVSSGGSGGSGGSGGSQSALTQPPSASGSPGQSVSISCTGTSSDVGGYNYVSWYQQHPGKAPKLIIYDVDKRPSGIPERFSGSNSGNTATLTISGTQAMDEADYYCQAWDSSTEVVFGGGTKVTVL , field cell binding: 10800

35-TC6-VII-A09 (scFv, His-tagged) scFv: EVQLVQSGGGVVQPGRSLRLSCAASGFTFSSYGMHWVRQAPGKGLEWVAVISYDGSNKYYADSVKGRFTISRDNSKNTLYLQMNSLRAEDTAVYYCAKAGAPPHYYYGMDVWGQGTTVTVSSGGSGGSGGSGGSQSALTQPASVSGSPGQSITISCTGTSSDVGGYDYVSWYQQHPGKAPKLMIYEVTDRPSGIPNRFSGSKSGNTASLTISGLQAEDEADYYCSSYTYTSTLEVFGGGTKVTVL has a reported cell binding of 18800

Sample 51-TC7-VIII-G06 (scFv, His-tagged) scFv: QVQLLESGGGLVQPGRSLRLSCAASGFTFDDYAMHWVRQAPGKGLEWVSGITWNSGSIGYADSVKGRFTISRDNAKNSLYLQMNSLRAEDTAVYYCAREVAARPFYYYGMDVWGQGTTVTVSSGGSGGSGGSGGSQSVLTQPPSVSVAPGKTARITCGGNNIGSKSVHWYQQKPGQAPVLVVYDDSDRPSGIPERFSGSNSGNTATLTISGTQAMDEADYYCQAWDSSTVFGGGTKLTVL ; cell binding observed: 4260

Where do the numbers come from? From patent US20240252641A1.
